Data origin, for the record: ChEMBL document CHEMBL1141525

Biological target: Arachidonate 5-lipoxygenase-activating protein (Homo sapiens)
Sequence (P20292 whole entry): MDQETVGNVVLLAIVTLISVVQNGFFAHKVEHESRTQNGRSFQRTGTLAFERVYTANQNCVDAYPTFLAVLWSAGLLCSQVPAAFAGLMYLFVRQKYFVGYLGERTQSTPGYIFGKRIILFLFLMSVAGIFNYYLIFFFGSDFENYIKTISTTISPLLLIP
Experiment: Displacement of [125I]L-691831 from FLAP
pIC50: −log10 of the molar value.
Would you please tag the item satisfied when its pIC50 is 8 or above, and not satisfied when it is below?

Known results for compounds:
Compound	Group label
O=C(Nc1cccnc1)Oc1ccc(OCc2nc3ccccc3s2)cc1C1(c2ccccc2)CC2CCC1C2 (single isomer, unassigned; (-))	satisfied
COC(=O)COc1ccc(OCc2ccc3ccccc3n2)cc1C1(c2ccccc2)CC2CCC1C2 (stereo not drawn)	satisfied
CS(=O)(=O)CCOc1ccc(OCc2ccc3ccccc3n2)cc1C1(c2ccccc2)CC2CCC1C2 (stereo not drawn)	satisfied
c1ccc(C2(c3cc(OCc4ccc5ccccc5n4)ccc3OCc3ccc4ccccc4n3)CCCC2)cc1	satisfied
O=C(Nc1cccnc1)Oc1ccc(OCc2ccccn2)c(C2(c3ccccc3)CC3CCC2C3)c1 (stereo not drawn)	not satisfied
Oc1cc(OCc2ccc3ccccc3n2)ccc1C1(c2ccccc2)CC2CCC1C2 (stereo not drawn)	not satisfied
COC(=O)COc1cc(OCc2ccc3ccccc3n2)ccc1C1(c2ccccc2)CC2CCC1C2 (stereo not drawn)	not satisfied
Oc1ccc(O)c(C2(c3ccccc3)CC3CCC2C3)c1 (stereo not drawn)	not satisfied

Check this compound for pIC50 at or above 8: c1ccc(C2(c3cc(OCc4ccc5occc5n4)ccc3OCc3ccccn3)CC3CCC2C3)cc1 (stereo not drawn)
satisfied

Check this compound for pIC50 at or above 8: O=C(Nc1cccnc1)Oc1ccc(OCc2ccc3ccccc3n2)cc1C1(c2ccccc2)CCCC1
satisfied

Check this compound for pIC50 at or above 8: CCOC(=O)CCCOc1ccc(OCc2ccc3ccccc3n2)cc1C1(c2ccccc2)CC2CCC1C2 (stereo not drawn)
satisfied
